System: TYK2(JH2domain-pseudokinase);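 note: KINOMEscan kinase panel screen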
details: concentration: 1 μM,replicates: in singlicate; n = 1
Would you kindly list %Inh for each of these compounds?
Answer with a number only, understood to be in %.

Record summary for C[C@@H]1CCN(C(=O)N2CCCC2)C[C@@H]1N(C)c1ncnc2[nH]ccc12 : reported %Inh = 0

The recorded %Inh for entry NC(=O)c1ccc(-c2cc3ncnc(SCC(=O)O)c3s2)cc1 equals 42

So for CN1CCN(CCNc2nc3cc(Oc4ccc(NC(=O)Nc5cc(C(F)(F)F)ccc5F)cc4)ccc3[nH]2)CC1.Cl.Cl [GW768504] , the logged %Inh turned out to be 0

Measured %Inh of C[C@@H]1CNc2c(sc3ccc4nc(-c5ccc(O)cc5)ccc4c23)C(=O)N1 : 23

GET /value?item= O=C1NCCc2[nH]c(-c3ccncc3)cc21 &field=%Inh returns 41

Record CC(=O)Nc1ccc(-c2cc3ncnc(SCC(=O)O)c3s2)cc1 , field %Inh: 0

The compound identified as CN1CCN(CCCNc2nccc(-c3c(-c4ccc(F)cc4)nn4cc(C(N)=O)ccc34)n2)CC1 [GW622475] registered its %Inh at 40

Reported %Inh of CCn1c(-c2nonc2N)nc2cncc(CNC3CCNCC3)c21.Cl [SB-747651] : 47

The recorded %Inh for entry CCNCC(Cc1ccccc1)NC(=O)c1cc(Br)c(-c2ccnc3[nH]ccc23)s1.Cl.Cl (stereo not drawn) [GSK1383280] equals 10

Record summary for CNC(=O)c1ccccc1Nc1nc(Nc2cccc(CS(C)(=O)=O)c2)ncc1C.O=CO [GSK1520489] : reported %Inh = 98.9

Field %Inh (entry CC(=O)c1c(-c2ccncc2)[nH]c(-c2ccncc2)c1C [GW493036] ) reads 90

// %Inh value for CC(C)S(=O)(=O)N1CCN(Cc2ccc3c(c2)nc(NC(=O)c2ccsc2)n3C[C@H](O)c2ccccc2)CC1 [GW635815] : 8

// sample CN(c1ccccc1CNc1nc(Nc2ccc3c(c2)CC(=O)N3)ncc1C(F)(F)F)S(C)(=O)=O , its %Inh was 0

Looking up Cn1ccc2ncnc(Oc3ccc(NC(=O)Nc4cncc(C(F)(F)F)c4)c(Cl)c3)c21 , I see its %Inh listed as 0

get_value(item= Cl.Cl.NC[C@H](CC1CCCCC1)NC(=O)c1ccc(-c2ccnc3[nH]ccc23)s1 [GSK1581428] , readout=%Inh) returns 0

%Inh reported for this compound Cc1cccc(-c2nc(Nc3ccncc3)c3sccc3n2)n1 [GW869641] : 75

Value of %Inh reported for the compound Cc1cccc2c(-c3ccncc3)c(-c3ccc(F)cc3)nn12.Cl [GW461487] is 0

The compound identified as O=C(Nc1n[nH]c2cc(-c3ccco3)ccc12)C1CC1 [SB-737447] registered its %Inh at 0
